Below is a list of entries, each paired with its recorded protein stability index value.
- experiment: protein stability index of a GFP-peptide fusion (GPS, HEK-293T) (PSI 1-6); higher = more stable;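 also: 24-mer peptide tiles fused after GFP, lentivirally expressed, FACS-sorted into six equal bins by GFP/DsRed ratio, decoded by Illumina sequencing, PSI is the read-weighted mean bin number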
- settings: treatment: DMSO; c terminus: a fixed tail appended

seq | protein stability index
PINYQGLRFSGVNDTDFRVYLLGN [POMT2] | 2.27
ALVRTRMQAQASIEGAPEVTMSSL [SLC25A25] | 3.6
VWDMRSGQCVQAFETHESDINSVR [GNB5] | 3.48
TSILSRLPPEALTAPSGGQWGAEP [RNF208] | 3.94
EHGEKIYFFCENDAEFLCVFCREG [TRIM15] | 2.36
QSNYDTKGKTAVDTVFRFDPRYNK [KLHL13] | 3.49
DIASRYPTLWTEQVKSRQNKTNKN [SMOC2] | 3.98
YPTCGIGYPVSSAFAFQNTFPHSI [SASS6] | 2.66
NYCLLFLIYTVMLAFRSGSDNLLV [SLC35F2] | 3.04
MATYLRYVRRLDFFEKPDYDYLRK [CSNK1G3] | 2.31
SSETPPPPPPPNEINPPPHTMEEE [EIF5] | 5.52
DSYESYGNSRSAPPTRGPPPSYGG [RBMX] | 4.27
LEKVLEENAQKKRFNQVLKNLLHA [VPS39] | 2.85
SNVQEVRCPVTVCGDVHGQFHDLM [PPP2CA] | 3.54
ATSESTTVEPGKLDVGATEGQDLQ [DRICH1] | 5.46
EALGHMFMYFLRGSLPWQGLKADT [CSNK1G1] | 3.63
GSELRDFPGRPMGHLSKDVDENDS [DLC1] | 5.63
AAARCVVLDCRPYLAFAASNVRGS [DUSP5] | 2.15
AFRYLSWILFPLLGCYAVYSLLYL [CLPTM1] | 2.29
HPTYEEKLKLVALHKQVLMGPYNP [ACBD3] | 2.6
DREGYTSFWNDCISSGLRGCMLIE [GOLPH3] | 2.08
HVGELIIWDALDWTMQAYERNFWD [WDR41] | 2.33

###

Below is a list of entries, each paired with its recorded protein stability index value.
- experiment: protein stability index of a GFP-peptide fusion (GPS, HEK-293T) (PSI 1-6); higher = more stable
- settings: treatment: DMSO; c terminus: a fixed tail appended

seq | protein stability index
ILAVSFAPLIQPCHSESGKSRLVQ [PCMTD2] | 2.23
LHRGQLSLFCLEDKELLCCSCQAD [TRIM35] | 2.68
KILHTAWHPAENIIAIAATNNLYI [PPP2R2C] | 2.81
EEGTSDSNTGSESNSATVEEPPTD [SMARCE1] | 5.36
EAAGGESALAPSVFKQAKDKVSDG [MAP2] | 5.46
LMMRMGILGRGLQEYQLPYQRVLP [TCAP] | 2.48
KSKKYSDVEVPASVTGYSFASDGD [ADD1] | 4.68
VLAGAAEEGFMTAELAGVIKRLWK [GNAI1] | 2.38
NLETNEWRYVSSLPQPLAAHAGAV [KLHL14] | 2.64
PAAMGPPGAPPGRDLASVPPELTA [DVL3] | 4.88
CQHLSSSAEELRKARSNSTLSKSE [KCNA3] | 5.01
AEVVKILQTMLRQSAFLHLPLPEQ [INTS4] | 2.75
PKTSGTRATSLGRPEEEEDELAHR [CPOX] | 5.42
NYSIPSNVTNLEGGPGRQTTSPNV [ESR2] | 4.66
